test system: HCT-15 colon; test: NCI-60 one-dose screen, 48 h (100 = growth as untreated, 0 = no growth, -100 = all killed); settings: 10 µM unless noted
About 83,000 compounds went through this panel and 20% of them were active in at least one assay; those are over-represented in the sample as a whole.
MEASURED ENDPOINT: growth (%)
Report only the number, with the unit % understood.

Prompt: Tell me the measured growth of NC(=S)N/N=C/c1cn(-c2ccccc2)nc1-c1cc2ccccc2oc1=O , please.
Response: 28.2

Prompt: Tell me the measured growth of O=C(Nc1ncc(Cc2ccccc2Cl)s1)c1cccs1 , please.
Response: 32

Prompt: Tell me the measured growth of Cc1nc2sc(C(=O)Nc3ccc(Cl)cc3)c(N)c2cc1C(O)c1ccccc1 (stereo not drawn) , please.
Response: 28.9

* * *

system: UO-31 renal; test: NCI-60 one-dose screen, 48 h; details: 10 µM unless noted
This is part of a sample that, as a whole, favours compounds with a hit. Of some 83,000 tested, about 20% had one in any assay. The source made the active and inactive calls. The calls were made as follows: active = growth percent below 10; inactive = the rest.
// classify into 1 for active, -1 for inactive

Prompt: Lab log entry: COc1ccc(/C=C/C(=O)c2cc3c(N)c(C(=O)Nc4ccc(OC)cc4)sc3nc2C)cc1 — outcome as called in the assay?
Response: -1

Prompt: Lab log entry: O=C1NC(=C(Cl)Cl)/C(=N/S(=O)(=O)N2CCCCC2)N1 — outcome as called in the assay?
Response: -1

Prompt: Lab log entry: Cc1c(N2CN3C[C@H](C)N4CN(c5c(C)n(C)n(-c6ccccc6)c5=O)CN5C[C@@H](C)N(C2)C3C54)c(=O)n(-c2ccccc2)n1C (stereo not given in full) — outcome as called in the assay?
Response: -1

Prompt: Lab log entry: C=C1C(=O)O[C@H]2[C@H]1CC/C(CNC(=O)c1cc3ccccc3[nH]1)=C\CC[C@@]1(C)O[C@@H]21 — outcome as called in the assay?
Response: 1

Prompt: Lab log entry: CN(C)c1ccc(C(=NO)c2ccc(N(C)C)cc2)cc1 — outcome as called in the assay?
Response: -1

Prompt: Lab log entry: N#Cc1c(-c2cccc([N+](=O)[O-])c2)cc(-c2ccc(Nc3nc(Nc4ccc(F)cc4)nc(Nc4ccc(F)cc4)n3)cc2)nc1N — outcome as called in the assay?
Response: -1

Prompt: Lab log entry: C=CCOC(=O)C1=C(C)NC(=O)NC1c1c(Cl)n(C)c2ccccc12 (stereo not given) — outcome as called in the assay?
Response: -1

Prompt: Lab log entry: COc1cc(-c2cc(-c3ccc(Nc4ncnc5cc(Cl)ccc45)cc3)nc(N3CCN(C)CC3)n2)cc(OC)c1OC — outcome as called in the assay?
Response: -1

Prompt: Lab log entry: COC(=O)C1=C(C)NC(C)=C(C(=O)OCC(C)C)C1c1ccccc1[N+](=O)[O-] (stereo not given) — outcome as called in the assay?
Response: -1

Prompt: Lab log entry: CCn1cc(C(=O)N/N=C/c2ccc(Br)cc2)c(=O)c2cc(F)c(N3CCNC(C)C3)c(F)c21 (stereo not given) — outcome as called in the assay?
Response: -1

* * *

Please go through the items and note down their growth.
test system: SK-OV-3 ovarian; experiment: NCI-60 one-dose screen, 48 h (100 = growth as untreated, 0 = no growth, -100 = all killed); conditions: 10 µM unless noted
About 83,000 compounds went through this panel and 20% of them were active in at least one assay; those are over-represented in the sample as a whole. Activity calls are given as the source filed them. Rule for the calls: active = growth percent below 10; inactive = the rest.

Prompt: Tell me the measured growth of CCN(CC)c1ccc(/C=N\NC(=O)c2cccc(Nc3ccnc(C(F)(F)F)c3)c2)c(O)c1 , please.
Response: 19.5% (inactive)

Prompt: Tell me the measured growth of Cc1ccc2nc(Cl)c(Cn3nnnc3SCc3ccccc3)cc2c1 , please.
Response: 97.7% (inactive)

Prompt: Tell me the measured growth of O=C(N/N=C/c1ccc(O)cc1O)c1ccc(Nc2ccnc(C(F)(F)F)c2)cc1 , please.
Response: 38.9% (inactive)

Prompt: Tell me the measured growth of C#CCn1cnc2c(Nc3cccc(NC(=O)CCl)c3)ncnc21 , please.
Response: 49.6% (inactive)

Prompt: Tell me the measured growth of CC1(C)C2CC=C(/C=N/NC(=O)C3CCC(=O)N3)C1C2 (centres undefined) , please.
Response: 106% (inactive)

Prompt: Tell me the measured growth of Clc1nccc2c(-c3csc(-c4c[nH]c5ccccc45)n3)c[nH]c12 , please.
Response: 58.8% (inactive)

Prompt: Tell me the measured growth of COc1ccc(C2=Nc3c/c(=C\c4c(O)[nH]c5cc(Cl)ccc45)ccc3=N2)cc1 , please.
Response: 46.4% (inactive)

Prompt: Tell me the measured growth of CCOC(=O)C(=Cc1cccc(C#N)c1)C(=O)OCC , please.
Response: 91.3% (inactive)

Prompt: Tell me the measured growth of CCCCCCNc1nc(NCCCCCC)c2[nH]c(NCCCCCC)nc2n1 , please.
Response: 102% (inactive)

Prompt: Tell me the measured growth of CN1CCN(Cc2ccc(NC(=O)c3cncc(C#Cc4cncc5[nH]ncc45)c3)cc2C(F)(F)F)CC1 , please.
Response: 8.47% (active)

Prompt: Tell me the measured growth of COc1ccccc1-n1c(-c2cc(O)ccc2C)cn2c3c(=O)[nH]c(=O)n(C)c3nc12 , please.
Response: 47.4% (inactive)

Prompt: Tell me the measured growth of Clc1ccc(-c2cn3ccsc3n2)c(Cl)c1Cl , please.
Response: 118% (inactive)

Prompt: Tell me the measured growth of C#Cc1cccc(Oc2ccc(NC(=O)CCl)cc2)c1 , please.
Response: 98.9% [8.25 µM] (inactive)

Prompt: Tell me the measured growth of O=C1OCC2=C1C(c1cccc(C(F)(F)F)c1)c1cc3c(cc1N2CCO)OCO3 (centres undefined) , please.
Response: 27.9% (inactive)

Prompt: Tell me the measured growth of Cc1ccc(/C=C2\CN(C(=O)C(Cl)Cl)C/C(=C\c3ccc(C)cc3)C2=O)cc1 , please.
Response: 29% (inactive)

Prompt: Tell me the measured growth of Cc1ccc(S(=O)(=O)n2cc(C3C(Cl)C(=O)N3c3ccc(N4CCOCC4=O)cc3)c3ccccc32)cc1 (centres undefined) , please.
Response: 93.9% (inactive)

Prompt: Tell me the measured growth of CCCCCCOC(=O)CC1=C(C)/C(=C/c2[nH]c(-c3ccc[nH]3)cc2OC)N=C1C , please.
Response: -34.5% (active)

Prompt: Tell me the measured growth of COc1ccc(/C(C)=C(\c2ccc(OCCN3CCCCCC3)cc2)c2ccc(OC(=O)c3ccccc3)cc2)cc1 , please.
Response: 81.4% (inactive)

Prompt: Tell me the measured growth of CSCCC(NC(=O)c1ccccc1)C(=O)N/N=C1\S/C(=C/c2ccc(Cl)cc2)C(=O)N1C (centres undefined) , please.
Response: 84.5% (inactive)

Prompt: Tell me the measured growth of Cc1cc(F)ccc1S(=O)(=O)Nc1cc(-c2c(O)ccc3ccccc23)c(O)c2ccccc12 , please.
Response: 52.3% (inactive)

Prompt: Tell me the measured growth of Cc1cc(N2CCN(C)CC2)nc(NCc2cc(Nc3ccnc4cc(Cl)ccc34)ccc2F)n1 , please.
Response: 23% (inactive)

Prompt: Tell me the measured growth of Cn1cc(-c2csc(-c3cn(C(=O)OC(C)(C)C)c4ccccc34)n2)c2ccnc(Cl)c21 , please.
Response: 71.3% (inactive)

Prompt: Tell me the measured growth of O=C1OCC2=C1C(c1cccc(F)c1)c1cc3c(cc1N2CCO)OCO3 (centres undefined) , please.
Response: 19.5% (inactive)

Prompt: Tell me the measured growth of CCCCCCC(=O)Nc1ncc(Cc2ccc(C)cc2)s1 , please.
Response: 31.8% (inactive)

Prompt: Tell me the measured growth of CC/C(Cc1ccccc1)=C(\c1ccc(OCCN2CCCCCC2)cc1)c1ccc(OC(=O)NCc2ccccc2)cc1 , please.
Response: 88.6% (inactive)

Prompt: Tell me the measured growth of CCCCCCCCn1ccc2cc(NC(=O)Cn3cc(CN4CCOCC4)nn3)ccc21 , please.
Response: 111% (inactive)

Prompt: Tell me the measured growth of COc1cc(-c2nc(NC(C)=O)sc2-c2ccnc(NCCNS(=O)(=O)c3ccccc3)n2)ccc1Cl , please.
Response: 26.9% (inactive)

Prompt: Tell me the measured growth of N#Cc1c(-c2ccccc2)c(C#N)c2c(C#N)c(N)nn2c1N , please.
Response: 62.2% (inactive)

Prompt: Tell me the measured growth of COc1ccc(C/C(C)=C(/c2ccc(OCCN3CCCCCC3)cc2)c2ccc(OC(=O)NCc3ccccc3)cc2)cc1 , please.
Response: 95.3% (inactive)
